Target: T1, cMetECDHis (human, UniProt P08581 25-932, limits assumed, biotinylated in the cross-block ELISA of Example 17)
T1 construct: Expressed in HEK-293F cells; also called soluble cMetECDHis; biotinylated cMetECDHis
Assay: cross-block ELISA; competitor 006
parameter-measured: residual binding, % of no competitor (%)

| binder | measured-result |
| --- | --- |
| anti-c-Met HuMab 181 (IgG1) (antibody, V domains shown, also called TH1016-181; PC1016-181) VH: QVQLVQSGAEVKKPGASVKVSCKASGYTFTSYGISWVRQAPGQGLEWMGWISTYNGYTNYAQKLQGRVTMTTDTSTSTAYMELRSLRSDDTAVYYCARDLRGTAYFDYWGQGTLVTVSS VL: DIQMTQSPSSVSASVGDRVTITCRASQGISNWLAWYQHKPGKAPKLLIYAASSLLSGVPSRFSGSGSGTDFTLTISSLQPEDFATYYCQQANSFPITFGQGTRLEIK | 93.7 |
| anti-c-Met HuMab 098 (IgG1) (antibody, V domains shown, also called TH1016-098; PC1016-098) VH: QVQLVQSGAEVKKPGASVKVSCKASGYTFTNFGISWVRQAPGQGLEWMGWISAFNGHTDYSQKVQGRVTMTTDTSTSTAYMELRSLRSDDTAVFYCARSHYYGSGSPFDYWGQGTLVTVSS VL: DIQMTQSPSSLSASVGDRVTITCRASQGISNWLAWYQQKPEKAPKSLIYAASSLQSGVPSRFSGSGSGTDFTLTISSLQPEDFATYYCHQYKSYPWTFGQGTKVEIK | 97.9 |
| anti-c-Met HuMab 005 (IgG1) (antibody, V domains shown, also called TH1016-005; PC1016-005) VH: QVQLVQSGAEVKKPGSSVKVSCKASGGTFSSYGFGWVRQAPGQGLEWMGRISPILGIANYAQMFQGRVTITADKSTSTAYMELSSLRSEDTAVYYCARDVGYDWPDTFDIWGQGTMVIVSS VL: DIQMTQSPSSLSASVGDRVTITCRASQGISSWLAWYQQKPEKAPKSLIYAASSLQSGVPSRFSGGGSGTDFTLTISSLQPEDFATYYCQQYNSFPPTFGQGTKVEIK | 18.2 |
